target: AP2-associated protein kinase 1 (Homo sapiens); note: in the data inactive means no Kd found up to 30 µM
Sequence (Q2M2I8 whole entry): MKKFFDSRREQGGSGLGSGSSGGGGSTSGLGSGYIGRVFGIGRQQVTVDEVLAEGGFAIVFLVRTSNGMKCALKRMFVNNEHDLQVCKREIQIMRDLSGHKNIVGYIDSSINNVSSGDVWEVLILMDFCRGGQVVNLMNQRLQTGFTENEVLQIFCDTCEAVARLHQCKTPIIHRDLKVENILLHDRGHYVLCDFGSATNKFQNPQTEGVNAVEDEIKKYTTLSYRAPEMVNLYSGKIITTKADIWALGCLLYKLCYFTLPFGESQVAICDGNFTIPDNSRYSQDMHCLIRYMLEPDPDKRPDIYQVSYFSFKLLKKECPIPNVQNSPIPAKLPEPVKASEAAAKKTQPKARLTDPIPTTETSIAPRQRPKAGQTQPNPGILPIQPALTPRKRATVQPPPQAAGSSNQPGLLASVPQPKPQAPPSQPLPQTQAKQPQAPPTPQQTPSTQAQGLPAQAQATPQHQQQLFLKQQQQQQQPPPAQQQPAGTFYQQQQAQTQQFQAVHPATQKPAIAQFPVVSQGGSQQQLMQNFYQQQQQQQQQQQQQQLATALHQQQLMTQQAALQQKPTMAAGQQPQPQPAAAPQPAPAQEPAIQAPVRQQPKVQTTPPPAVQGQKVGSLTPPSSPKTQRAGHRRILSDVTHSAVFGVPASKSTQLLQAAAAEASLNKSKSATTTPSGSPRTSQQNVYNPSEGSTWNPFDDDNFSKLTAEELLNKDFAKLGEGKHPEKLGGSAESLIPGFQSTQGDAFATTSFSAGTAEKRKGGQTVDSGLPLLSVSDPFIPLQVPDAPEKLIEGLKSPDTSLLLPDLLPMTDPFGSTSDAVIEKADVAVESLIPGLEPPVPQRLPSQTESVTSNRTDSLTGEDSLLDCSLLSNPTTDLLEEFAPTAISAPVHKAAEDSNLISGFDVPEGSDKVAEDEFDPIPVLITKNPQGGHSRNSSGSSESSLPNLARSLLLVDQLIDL
Calls of active or inactive are those of the source.
A correct response names exactly one class from active, inactive

query: # outcome recorded in this test, key = CNC(=O)c1cc(Oc2ccc(NC(=O)Nc3ccc(Cl)c(C(F)(F)F)c3)c(F)c2)ccn1 [REGORAFENIB]
result: inactive

query: # outcome recorded in this test, key = O=C(Nc1ccc(-c2ccnc(Nc3ccc(N4CCOCC4)cc3)n2)cc1)C1CCCN1 (configuration not stated) [XL-019]
result: active

query: # outcome recorded in this test, key = Cc1ccc(NC(=O)c2ccc(CN3CC[C@H](N(C)C)C3)c(C(F)(F)F)c2)cc1Nc1nccc(-c2cncnc2)n1 [BAFETINIB]
result: inactive

query: # outcome recorded in this test, key = Cc1cc(-c2cc(O)ccc2Cl)cc2nnc(Nc3ccc(OCCN4CCCC4)cc3)nc12
result: inactive

query: # outcome recorded in this test, key = CNC(=O)CN1CCC(Oc2cc3c(Nc4cccc(Cl)c4F)ncnc3cc2OC)CC1 [SAPITINIB]
result: inactive

query: # outcome recorded in this test, key = O=C1NC(=O)/C(=C/c2ccc3nccc(-c4ccncc4)c3c2)S1 [GSK-1059615]
result: active

query: # outcome recorded in this test, key = C=CC(=O)N1CCC(Oc2cc3c(Nc4ccc(Cl)c(Cl)c4F)ncnc3cc2OC)CC1 [POZIOTINIB]
result: inactive
